# IC50 per entry
Target: CRBN/DDB1 (Homo sapiens (Human), UniProt Q96SW2)
Sequence (Q96SW2 whole entry, species assumed): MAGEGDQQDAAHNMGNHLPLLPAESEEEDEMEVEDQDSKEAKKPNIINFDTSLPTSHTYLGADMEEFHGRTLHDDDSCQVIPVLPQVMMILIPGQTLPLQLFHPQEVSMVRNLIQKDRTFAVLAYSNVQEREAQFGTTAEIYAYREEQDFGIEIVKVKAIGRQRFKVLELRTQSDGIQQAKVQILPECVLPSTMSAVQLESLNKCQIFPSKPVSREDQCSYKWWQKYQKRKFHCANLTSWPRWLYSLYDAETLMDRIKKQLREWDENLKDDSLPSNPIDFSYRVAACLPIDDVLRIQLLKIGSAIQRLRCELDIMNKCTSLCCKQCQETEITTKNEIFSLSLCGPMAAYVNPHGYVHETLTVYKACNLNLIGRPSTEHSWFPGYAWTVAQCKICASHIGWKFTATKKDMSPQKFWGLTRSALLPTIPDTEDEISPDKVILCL
Sequence (Q16531 whole entry partner, species assumed): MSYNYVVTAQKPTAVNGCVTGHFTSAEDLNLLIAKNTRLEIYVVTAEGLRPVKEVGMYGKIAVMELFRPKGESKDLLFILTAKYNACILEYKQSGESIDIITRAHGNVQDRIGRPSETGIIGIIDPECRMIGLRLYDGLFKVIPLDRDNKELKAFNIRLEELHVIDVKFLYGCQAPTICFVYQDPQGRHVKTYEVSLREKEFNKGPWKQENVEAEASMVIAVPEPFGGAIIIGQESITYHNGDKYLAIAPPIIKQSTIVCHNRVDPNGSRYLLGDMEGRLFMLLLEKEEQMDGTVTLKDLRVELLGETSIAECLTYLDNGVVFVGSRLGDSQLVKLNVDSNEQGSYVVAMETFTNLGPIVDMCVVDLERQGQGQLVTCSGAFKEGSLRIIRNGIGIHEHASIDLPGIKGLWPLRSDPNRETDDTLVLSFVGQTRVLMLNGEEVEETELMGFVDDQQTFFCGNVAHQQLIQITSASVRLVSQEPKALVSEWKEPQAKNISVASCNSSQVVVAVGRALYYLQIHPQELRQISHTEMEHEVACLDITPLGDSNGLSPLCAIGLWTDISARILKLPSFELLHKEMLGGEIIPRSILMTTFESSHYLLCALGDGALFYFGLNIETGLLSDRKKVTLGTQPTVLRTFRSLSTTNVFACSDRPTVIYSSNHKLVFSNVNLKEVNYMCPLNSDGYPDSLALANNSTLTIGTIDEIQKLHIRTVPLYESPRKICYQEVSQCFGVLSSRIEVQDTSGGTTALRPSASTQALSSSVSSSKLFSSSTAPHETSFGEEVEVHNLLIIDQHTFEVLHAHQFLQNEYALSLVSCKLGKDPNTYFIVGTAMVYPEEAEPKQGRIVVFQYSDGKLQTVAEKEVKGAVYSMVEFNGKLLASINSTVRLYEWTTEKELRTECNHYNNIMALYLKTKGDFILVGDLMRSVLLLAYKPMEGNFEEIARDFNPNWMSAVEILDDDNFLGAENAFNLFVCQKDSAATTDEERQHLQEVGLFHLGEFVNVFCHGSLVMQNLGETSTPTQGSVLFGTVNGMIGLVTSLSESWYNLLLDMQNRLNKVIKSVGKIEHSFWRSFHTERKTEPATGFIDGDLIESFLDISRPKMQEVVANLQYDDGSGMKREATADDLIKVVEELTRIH
Experiment: IC50 measurements for binding to CRBN/DDB1 (HTRF)
Settings: His tagged CRBN+DDB, Cy5-labeled Thalidomide probe, one hour

O=C1CCC(N2Cc3cc(-c4cc(CN5CCCC5)c5c(ccn5C5CC5)n4)ccc3C2=O)C(=O)N1 (stereo not shown) :: 500 to 1000 nM
CC(c1cc(-c2ccc3c(c2)CN(C2CCC(=O)NC2=O)C3=O)nc2c1ccn2C)N1CCCC1 (stereo not shown) :: 100 to 500 nM
CC(C)n1ccc2c(CN3CCCC3)cc(-c3ccc4c(c3)CN(C3CCC(=O)NC3=O)C4=O)nc21 (stereo not shown) :: 500 to 1000 nM
CC(C)Oc1n[nH]c2c(CN3CCCC3)cc(-c3ccc4c(c3)CN(C3CCC(=O)NC3=O)C4=O)nc12 (stereo not shown) :: 1000 to 5000 nM
Cn1ccc2c(CN3CCn4nccc4C3)cc(-c3ccc4c(c3)CN(C3CCC(=O)NC3=O)C4=O)nc21 (stereo not shown) :: 100 to 500 nM
O=C1CCC(N2Cc3cc(-c4cc(CN5CCOCC5)cc5cncn45)ccc3C2=O)C(=O)N1 (stereo not shown) :: 1000 to 5000 nM

I am curious: what IC50 value has been reported for O=C1CCC(N2Cc3cc(-c4cc(CN5CCC(O)C5)c5ccn(C6CC6)c5n4)ccc3C2=O)C(=O)N1 (stereo not shown) ?
500 to 1000 nM
